Test target: HLA-A11:01 class I MHC molecule (human)
Test: competition with a radiolabeled reference peptide for purified MHC I, gel filtration; 'Affinity (nM)'; affinity assay, column 'Affinity (nM)'
Measured metric: IC50
Answer with the number, then the unit.

Query block: Would you mind telling me what IC50 value was observed for MANGSLLNY [BTK, C481S peptide MANGSLLNY] ?
Result block: 536 nM

Query block: I'd like to know its IC50. The binder in question is YMANGSLLNY [BTK, C481S peptide YMANGSLLNY]
Result block: 974 nM
